Test system: ASK1
Construct: gene MAP3K5
run-parameters: concentration: 1 μM, replicates: in singlicate; n = 1;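 note: KINOMEscan kinase panel screen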
readout-type: %Inh (%)
Your answer is read as %, so omit the unit and give the number.

ASK1 / %Inh / `COc1cccc(C(=O)Nc2cccc(Oc3ccc4nc(NC(=O)C5CC5)cn4n3)c2)c1` : value?
7

ASK1 / %Inh / `CCn1c(-c2nonc2N)nc2c(C#CC(C)(C)O)ncc(OCCCCN)c21.O=C(O)C(F)(F)F.O=C(O)C(F)(F)F` : value?
0

ASK1 / %Inh / Cc1ccc(C)c(NC(=O)NC2CCN(c3ccnc(Nc4ccc(F)cc4)n3)C2)c1 (stereo not shown) : value?
0

ASK1 / %Inh / `O=C(O)C(F)(F)F.O=C(O)C(F)(F)F.O=c1[nH]ccc2nc(N[C@@H]3CCCNC3)nc(Nc3ccc(S(=O)(=O)N4CCOCC4)cc3)c12` : value?
0

====

Task for the reader: assign each of the following molecules its reported %Inh.
Tested on: CDK11
Construct: gene CDK19
run-parameters: concentration: 1 μM, replicates: in singlicate; n = 1
Your answer is read as %, so omit the unit and give the number.

State the recorded %Inh for this entry: `O=c1[nH]cc(-c2ccc(N3CCOCC3)cc2)c2sc(-c3cn[nH]c3)cc12`
0

State the recorded %Inh for this entry: `CN(C)Cc1ccc(-c2ccc3c(Nc4ccc(Oc5ccccn5)cc4)ccnc3c2)o1`
0

State the recorded %Inh for this entry: `CCn1c(-c2nonc2N)nc2c(C#CC(C)(C)O)ncc(OCCCCN)c21.O=C(O)C(F)(F)F.O=C(O)C(F)(F)F`
0

State the recorded %Inh for this entry: `Nc1ncc(-c2cccnc2)c2scc(-c3ccc4c(c3)CCN4C(=O)Cc3ccccc3)c12`
45

State the recorded %Inh for this entry: `Cc1ccc(F)c(C(=O)Nc2cccc(-c3nn4ccccc4c3-c3ccnc(Nc4cccc(F)c4)n3)c2)c1F`
14

State the recorded %Inh for this entry: COc1cc(Nc2nccc(N3CCC(NC(=O)Nc4cccc(C(C)=O)c4)C3)n2)cc(OC)c1OC (centres unmarked)
16

State the recorded %Inh for this entry: `COc1ccc(CNC(=O)NC2CCN(c3ccnc(Nc4ccc(F)cc4)n3)CC2)cc1`
3

State the recorded %Inh for this entry: `COc1cccc(-c2ccc3c(NC(=O)C4CC4)n[nH]c3n2)c1`
0

====

Test system: PIP5K1C
run-parameters: concentration: 1 μM, replicates: in singlicate; n = 1
Task for the reader: assign each of the following compounds its reported %Inh.
Your answer is read as %, so omit the unit and give the number.

PIP5K1C / %Inh / `O=c1[nH]cc(-c2ccc(N3CCOCC3)cc2)c2sc(-c3cn[nH]c3)cc12` : value?
24

PIP5K1C / %Inh / `Nc1ncc(-c2ccc3nccc(-c4ccncc4)c3c2)cc1S(=O)(=O)N1CCOCC1` : value?
0

PIP5K1C / %Inh / `CC(=O)N1CCN(c2ccc(Nc3nccc(-c4sc(C(C)C)nc4-c4cccc(NS(=O)(=O)c5cccc(Cl)c5)c4)n3)cn2)CC1` : value?
15

PIP5K1C / %Inh / `O=C(Nc1n[nH]c2nc(-c3ccc(O)cc3)ccc12)C1CC1` : value?
83

PIP5K1C / %Inh / `Cc1ccc(S(=O)(=O)Nc2ccc(Nc3nccc(Nc4cccc5[nH]ncc45)n3)cc2)cc1` : value?
31

PIP5K1C / %Inh / `Cn1cc(-c2[nH]c3cc(NC(=O)[C@H](N)C4CCCCC4)cc4c3c2C=NNC4=O)cn1` : value?
52

PIP5K1C / %Inh / Cc1ccc(C)c(NC(=O)NC2CCN(c3ccnc(Nc4ccc(F)cc4)n3)C2)c1 (centres unmarked) : value?
65

PIP5K1C / %Inh / `Cc1ccc(C(=O)N2CC[C@@H](O)C2)cc1-n1c(C)cc(OCc2ccc(F)cc2F)c(Br)c1=O` : value?
50

====

Tested on: CDK5
run-parameters: concentration: 1 μM, replicates: in singlicate; n = 1
readout-type: %Inh (%)
Your answer is read as %, so omit the unit and give the number.

CDK5 / %Inh / Cn1cc(-c2ccc3c(c2)CCN3C(=O)Cc2cccc(F)c2)c2c(N)ncnc21 [GSK2603358] : value?
0

CDK5 / %Inh / COc1cc(Nc2nccc(N3CCC(NC(=O)c4cc5ccccc5s4)C3)n2)cc(OC)c1OC (centres unmarked) [GSK1379760] : value?
0

CDK5 / %Inh / `CC(=O)Nc1nc2cnc(Nc3cc(NC(=O)c4cccc(C5(C#N)CC5)c4Cl)ccc3C)nc2s1` : value?
0

CDK5 / %Inh / Cc1ccc(C)c(NC(=O)NC2CCN(c3ccnc(Nc4ccc(F)cc4)n3)C2)c1 (centres unmarked) [GSK1379720] : value?
0

CDK5 / %Inh / Cl.Cl.NCC(C(=O)Nc1cc(Br)c(-c2ccnc3[nH]ccc23)s1)c1ccccc1 (centres unmarked) [GSK1269851] : value?
0

CDK5 / %Inh / C[C@@H]1CC[C@@H](C(=O)Nc2ccccc2)CN1c1cc(-c2ccc3c(N)n[nH]c3c2)nc(N)n1 [GSK2286062] : value?
0

CDK5 / %Inh / COc1cc(Nc2nccc(-c3c(-c4cccc(NC(=O)c5c(F)cccc5F)c4)nn4ccccc34)n2)cc(OC)c1OC [GSK323521] : value?
28

CDK5 / %Inh / CN(c1ccc(NC(=O)Nc2cc(C(F)(F)F)ccc2F)cc1)c1ccnc(Nc2ccc(S(N)(=O)=O)cc2)n1 [GW809893] : value?
97.1

====

System: ALK
run-parameters: concentration: 1 μM, replicates: in singlicate; n = 1
Task for the reader: assign each of the following compounds its reported %Inh.
Your answer is read as %, so omit the unit and give the number.

State the recorded %Inh for this entry: `Oc1cc(Nc2ccnc3cc(I)ccc23)ccc1F`
34

State the recorded %Inh for this entry: `COC(=O)Nc1nc2ccc(Oc3ccc(NC(=O)Nc4cc(C(F)(F)F)ccc4F)cc3)cc2n1C.Cl`
3

State the recorded %Inh for this entry: `CC(C)c1nc(-c2cccc(NS(=O)(=O)c3c(F)cccc3F)c2F)c(-c2ccnc(Nc3ccc(N4CCOCC4)nc3)n2)s1`
28

State the recorded %Inh for this entry: Cl.Cl.NCC(NCc1ccc(-c2ccnc3[nH]ccc23)s1)c1ccccc1 (stereo not shown)
64

State the recorded %Inh for this entry: `Cc1ccc(C(=O)Nc2ccc(Nc3ccnc4cc(-c5nccs5)ccc34)cc2O)cc1.Cl`
0

State the recorded %Inh for this entry: `Nc1ncc(-c2cccnc2)c2scc(-c3ccc4c(c3)CCN4C(=O)Cc3ccccc3)c12`
29

State the recorded %Inh for this entry: COc1cccc(NC(=O)NC2CCN(c3ccnc(Nc4cc(OC)c(OC)c(OC)c4)n3)C2)c1 (stereo not shown)
45

====

Task for the reader: assign each of the following molecules its reported %Inh.
Test system: ERBB4
run-parameters: concentration: 1 μM, replicates: in singlicate; n = 1
Your answer is read as %, so omit the unit and give the number.

State the recorded %Inh for this entry: `CSc1cccc2c(-c3ccncn3)c(-c3ccc(F)cc3)nn12`
0

State the recorded %Inh for this entry: `Cc1cccc(Nc2nc(N[C@H]3CCNC3)ncc2C(N)=O)c1.Cl`
23

State the recorded %Inh for this entry: `Cl.c1ccc(-c2ccc3c(Nc4ccc5[nH]ncc5c4)ccnc3c2)nc1`
31

State the recorded %Inh for this entry: `Nc1ncc(-c2ccc3nccc(-c4ccncc4)c3c2)cc1S(=O)(=O)N1CCOCC1`
0

State the recorded %Inh for this entry: COc1cc(Nc2nccc(N3CCC(NC(=O)c4cc5ccccc5s4)C3)n2)cc(OC)c1OC (stereo not drawn)
0

State the recorded %Inh for this entry: `Nc1ncnc2c1nc(-c1ccccc1)n2-c1ccccc1`
0

State the recorded %Inh for this entry: `Cl.NC(=O)c1cccc(Nc2nccc(Nc3ccc(Oc4c(Cl)cccc4Cl)c(Cl)c3)n2)c1`
93.9

State the recorded %Inh for this entry: `O=C(Nc1n[nH]c2cc(-c3ccoc3)ccc12)C1CC1`
0

State the recorded %Inh for this entry: `CN(C)Cc1ccc(-c2ccc3c(Nc4ccc(Oc5ccccn5)cc4)ccnc3c2)o1`
0

State the recorded %Inh for this entry: `COCCOCCOc1cc2ncc3c4ccc(C#N)cc4[nH]c3c2cc1OC`
0

State the recorded %Inh for this entry: `O=C(Nc1n[nH]c2nc(-c3ccc(O)cc3)ccc12)C1CC1`
6

State the recorded %Inh for this entry: `O=C(Nc1cccc(-c2nn3ncccc3c2-c2ccnc(Nc3ccccc3)n2)c1)c1c(F)cccc1F`
100

====

Test system: HIPK2
run-parameters: concentration: 1 μM, replicates: in singlicate; n = 1
Task for the reader: assign each of the following compounds its reported %Inh.
Your answer is read as %, so omit the unit and give the number.

State the recorded %Inh for this entry: `O=C(Nc1ccccc1F)NC1CCN(c2ccnc(Nc3ccc(F)cc3)n2)CC1`
0

State the recorded %Inh for this entry: `C[C@@H](Oc1cc(-n2cnc3cc(-c4ccnc(NCCS(C)(=O)=O)c4)ccc32)sc1C(N)=O)c1ccccc1Cl`
0

State the recorded %Inh for this entry: `Fc1ccc(-c2ncn(C3CCNCC3)c2-c2ccnc(Oc3ccc(-c4ccccc4)cc3)n2)cc1`
0

State the recorded %Inh for this entry: `CCc1ccc(-c2ccc3c(c2)-c2c(cnn2C)S(=O)(=O)N3C)cc1`
0

State the recorded %Inh for this entry: COc1cccc(NC(=O)NC2CCN(c3ccnc(Nc4cc(OC)c(OC)c(OC)c4)n3)C2)c1 (centres unmarked)
0

State the recorded %Inh for this entry: `Cc1cccc(Nc2nc(N[C@H]3CCNC3)ncc2C(N)=O)c1.Cl`
8

State the recorded %Inh for this entry: `Cl.c1ccc(-c2ccc3c(Nc4ccc5[nH]ncc5c4)ccnc3c2)nc1`
47

State the recorded %Inh for this entry: `CC(C)c1nc(-c2cccc(NS(=O)(=O)c3c(F)cccc3F)c2F)c(-c2ccnc(Nc3ccc(N4CCOCC4)nc3)n2)s1`
92.3
